Tested on: rats subjected to adrenalectomy (granuloma around implanted cotton wads)
Assay: granulom test (cotton-pellet test) on rats subjected to adrenalectomy: granuloma growth, thymus weight, body weight increase
Assay type: in vivo, rat (Sprague-Dawley)
Details: rat, in vivo, 11520 min
Assay readout: Dose required to obtain 25% inhibition of Body weight Increase

Compound	Observed
CC1O[C@@H]2C[C@H]3[C@@H]4CCC5=CC(=O)C=C[C@]5(C)[C@@]4(F)[C@@H](O)C[C@]3(C)[C@]2(C(=O)COC(=O)c2cccnc2)O1 (single isomer, unassigned) [17 A]	20 γ/animal
CCCC1O[C@@H]2C[C@H]3[C@@H]4C[C@H](F)C5=CC(=O)C=C[C@]5(C)[C@@]4(F)[C@@H](O)C[C@]3(C)[C@]2(C(=O)CO)O1 (single isomer, unassigned) [8 A]	50 γ/animal
CCCCC(=O)OCC(=O)[C@@]12OC(CCC)O[C@@H]1C[C@H]1[C@@H]3CCC4=CC(=O)C=C[C@]4(C)[C@@]3(F)[C@@H](O)C[C@@]12C (single isomer, unassigned) [22 B]	5 γ/animal
CC1O[C@@H]2C[C@H]3[C@@H]4C[C@H](F)C5=CC(=O)C=C[C@]5(C)[C@@]4(F)[C@@H](O)C[C@]3(C)[C@]2(C(=O)CO)O1 (single isomer, unassigned) [7 B]	15 γ/animal
CC1(C)O[C@@H]2C[C@H]3[C@@H]4CCC5=CC(=O)C=C[C@]5(C)[C@H]4[C@@H](O)C[C@]3(C)[C@]2(C(=O)CO)O1 [Prednacinolone acetonide, reference compound]	> 270 γ/animal

====

Entries and their measured log10 of ED25 body weight increase inhibition follow.
Test system: rats subjected to adrenalectomy (granuloma around implanted cotton wads)
Assay: granulom test (cotton-pellet test) on rats subjected to adrenalectomy: granuloma growth, thymus weight, body weight increase
Type: in vivo, rat (Sprague-Dawley)
Details: rat, in vivo
Assay readout: log10 of ED25 body weight increase inhibition (log10 of the value in µg/animal)

Molecule	Observed
CC1O[C@@H]2C[C@H]3[C@@H]4CCC5=CC(=O)C=C[C@]5(C)[C@@]4(F)[C@@H](O)C[C@]3(C)[C@]2(C(=O)COC(=O)c2cc3ccccc3o2)O1 (stereo partly shown) [16 B]	1.00
CCCC1O[C@@H]2C[C@H]3[C@@H]4CCC5=CC(=O)C=C[C@]5(C)[C@@]4(F)[C@@H](O)C[C@]3(C)[C@]2(C(=O)COC(=O)c2cc3ccccc3o2)O1 (single isomer, unassigned) [20 B]	0.70
CCCC1O[C@@H]2C[C@H]3[C@@H]4CCC5=CC(=O)C=C[C@]5(C)[C@H]4[C@@H](O)C[C@]3(C)[C@]2(C(=O)COC(=O)c2cc3ccccc3o2)O1 (single isomer, unassigned) [28 A]	2.00
CCCCC(=O)OCC(=O)[C@@]12OC(C)O[C@@H]1C[C@H]1[C@@H]3CCC4=CC(=O)C=C[C@]4(C)[C@@]3(F)[C@@H](O)C[C@@]12C (single isomer, unassigned) [18 A]	1.52
CCCCC(=O)OCC(=O)[C@@]12OC(C)O[C@@H]1C[C@H]1[C@@H]3CCC4=CC(=O)C=C[C@]4(C)[C@@]3(F)[C@@H](O)C[C@@]12C (single isomer, unassigned) [18 B]	1.00
CCCCC(=O)OCC(=O)[C@@]12OC(CCC)O[C@@H]1C[C@H]1[C@@H]3CCC4=CC(=O)C=C[C@]4(C)[C@@]3(F)[C@@H](O)C[C@@]12C (single isomer, unassigned) [22 A]	1.52
CCCCC(=O)OCC(=O)[C@@]12OC(CCC)O[C@@H]1C[C@H]1[C@@H]3CCC4=CC(=O)C=C[C@]4(C)[C@@]3(F)[C@@H](O)C[C@@]12C (single isomer, unassigned) [22 B]	0.48
CC1O[C@@H]2C[C@H]3[C@@H]4C[C@H](F)C5=CC(=O)C=C[C@]5(C)[C@@]4(F)[C@@H](O)C[C@]3(C)[C@]2(C(=O)COC(=O)c2cc3ccccc3o2)O1 (stereo partly shown) [23 A]	1.00
CCCC1O[C@@H]2C[C@H]3[C@@H]4CCC5=CC(=O)C=C[C@]5(C)[C@H]4[C@@H](O)C[C@]3(C)[C@]2(C(=O)COC(=O)c2cc3ccccc3o2)O1 (single isomer, unassigned) [28 B]	1.54

====

Tested on: rats subjected to adrenalectomy (granuloma around implanted cotton wads)
Assay: granulom test (cotton-pellet test) on rats subjected to adrenalectomy: granuloma growth, thymus weight, body weight increase
Type: in vivo, rat (Sprague-Dawley)
Conditions: rat, in vivo
Assay readout: ED50 thymus weight inhibition (µg/animal)

Compound	Assay target	Observed
CC1O[C@@H]2C[C@H]3[C@@H]4CCC5=CC(=O)C=C[C@]5(C)[C@@]4(F)[C@@H](O)C[C@]3(C)[C@]2(C(=O)COC(=O)c2cc3ccccc3o2)O1 (stereo partly drawn) [16 A]	rats subjected to adrenalectomy (granuloma around implanted cotton wads)	70
CCCC1O[C@@H]2C[C@H]3[C@@H]4CCC5=CC(=O)C=C[C@]5(C)[C@H]4[C@@H](O)C[C@]3(C)[C@]2(C(=O)COC(C)=O)O1 (single isomer, unassigned) [27 B]	rats subjected to adrenalectomy (granuloma around implanted cotton wads)	60
CCCC1O[C@@H]2C[C@H]3[C@@H]4CCC5=CC(=O)C=C[C@]5(C)[C@H]4[C@@H](O)C[C@]3(C)[C@]2(C(=O)COC(C)=O)O1 (single isomer, unassigned) [27 A]	rats subjected to adrenalectomy (granuloma around implanted cotton wads)	100

====

Let's look at some compounds and their measured Therapeutic ratio thymus/granuloma.
Test system: rats subjected to adrenalectomy (granuloma around implanted cotton wads)
Experiment: granulom test (cotton-pellet test) on rats subjected to adrenalectomy: granuloma growth, thymus weight, body weight increase
Assay type: in vivo, rat (Sprague-Dawley)
Details: rat, in vivo
Assay readout: Therapeutic ratio thymus/granuloma

Compound	Assay target	Observed
CCCC1O[C@@H]2C[C@H]3[C@@H]4CCC5=CC(=O)C=C[C@]5(C)[C@H]4[C@@H](O)C[C@]3(C)[C@]2(C(=O)COC(=O)c2cc3ccccc3o2)O1 (single isomer, unassigned) [28 A]	rats subjected to adrenalectomy (granuloma around implanted cotton wads)	> 33.3
CCCC1O[C@@H]2C[C@H]3[C@@H]4CCC5=CC(=O)C=C[C@]5(C)[C@H]4[C@@H](O)C[C@]3(C)[C@]2(C(=O)COC(=O)c2cc3ccccc3o2)O1 (single isomer, unassigned) [28 B]	rats subjected to adrenalectomy (granuloma around implanted cotton wads)	> 20.0
CCCCC(=O)OCC(=O)[C@@]12OC(CCC)O[C@@H]1C[C@H]1[C@@H]3CCC4=CC(=O)C=C[C@]4(C)[C@@]3(F)[C@@H](O)C[C@@]12C (single isomer, unassigned) [22 B]	rats subjected to adrenalectomy (granuloma around implanted cotton wads)	> 11.7
CCCC1O[C@@H]2C[C@H]3[C@@H]4CCC5=CC(=O)C=C[C@]5(C)[C@H]4[C@@H](O)C[C@]3(C)[C@]2(C(=O)COC(C)=O)O1 (single isomer, unassigned) [27 A]	rats subjected to adrenalectomy (granuloma around implanted cotton wads)	> 33.3
CCCC1O[C@@H]2C[C@H]3[C@@H]4CCC5=CC(=O)C=C[C@]5(C)[C@@]4(F)[C@@H](O)C[C@]3(C)[C@]2(C(=O)COC(=O)c2cc3ccccc3o2)O1 (single isomer, unassigned) [20 B]	rats subjected to adrenalectomy (granuloma around implanted cotton wads)	> 6.7

====

Tested on: rats subjected to adrenalectomy (granuloma around implanted cotton wads)
Assay: granulom test (cotton-pellet test) on rats subjected to adrenalectomy: granuloma growth, thymus weight, body weight increase
Format: in vivo, rat (Sprague-Dawley)
Settings: rat, in vivo, 11520 min
Excerpt: In the following this active stereoisomeric component will always be designated B. As regards the steroids referred to in connection with the present invention the stereoisomeric mixture as well as the individual stereoisomeric components A and B have been investigated with regard to antiinflammatory activity in granulom test on rats subjected to adrenalectomy. The experimental procedure used corresponds largely to that described by G. Engelhardt: Arzneimittel-Forschung, 13, p. 588, 1963. […]
Assay readout: Dose required to obtain 50% inhibition of Thymus weight

Compound	Observed
CCCCC1O[C@@H]2C[C@H]3[C@@H]4CCC5=CC(=O)C=C[C@]5(C)[C@@]4(F)[C@@H](O)C[C@]3(C)[C@]2(C(=O)CO)O1 (single isomer, unassigned) [4 B]	50 γ/animal
CC1(C)O[C@@H]2C[C@H]3[C@@H]4CCC5=CC(=O)C=C[C@]5(C)[C@H]4[C@@H](O)C[C@]3(C)[C@]2(C(=O)CO)O1 [Prednacinolone acetonide, reference compound]	105 γ/animal
CCCCCC1O[C@@H]2C[C@H]3[C@@H]4CCC5=CC(=O)C=C[C@]5(C)[C@@]4(F)[C@@H](O)C[C@]3(C)[C@]2(C(=O)CO)O1 (single isomer, unassigned) [5 B]	90 γ/animal
CCCCCC1OC2CC3C4CCC5=CC(=O)C=CC5(C)C4(F)C(O)CC3(C)C2(C(=O)CO)O1 (mixture of isomers) [5 A+B]	130 γ/animal
CC1O[C@@H]2C[C@H]3[C@@H]4C[C@H](F)C5=CC(=O)C=C[C@]5(C)[C@@]4(F)[C@@H](O)C[C@]3(C)[C@]2(C(=O)CO)O1 (single isomer, unassigned) [7 B]	6 γ/animal
